test system: Staphylococcus aureus; assay: Antibacterial activity against multidrug resistant Staphylococcus aureus ATCC BAA-44 after 6 to 8 hrs; format: functional, organism-based
observed_property: pEC50
Quick note: pEC50 means taking -log10 of the concentration in moles per liter.

Some compounds with known pEC50 results, for comparison:
structure_smiles_string	pEC50
O=S(=O)(Nc1ccc(-c2nc3cc(NS(=O)(=O)c4ccc(Cl)s4)ccc3o2)cc1)c1cccc(C(F)(F)F)c1	5.64
O=S(=O)(Nc1ccc2oc(-c3ccc(NS(=O)(=O)c4cccc5nonc45)cc3)nc2c1)c1ccc(Cl)s1	5.35
O=S(=O)(Nc1ccc2oc(-c3ccc(NS(=O)(=O)c4ccc(Cl)s4)cc3)nc2c1)c1ccc(Cl)c(C(F)(F)F)c1	5.66

Lab note: next compound to report on.
Report pEC50 for O=S(=O)(Nc1ccc(-c2nc3cc(NS(=O)(=O)c4ccc(Cl)cc4)ccc3o2)cc1)c1ccc(Cl)cc1 please.
5.46

These measurements were taken from ChEMBL document CHEMBL4152346.
